study-target: human SGLT2 (Homo sapiens (Human))
experiment-notes: Uptake assay of [14C]-AMG in Flp-In CHO cells stably expressing human SGLT2
Format: cell-based
condition: [14C]-AMG uptake, Flp-In CHO cells expressing human SGLT2, 1 hour at 37° C., n = 1-4
readout-name: IC50 (nM)

molecule	study-target	units-label	reported-value
OC[C@H]1O[C@@H](c2ccc(Cl)c(Cc3ccc(OCCC4COC4)cc3)c2)[C@H](O)[C@@H](O)[C@@H]1O	human SGLT2 (Homo sapiens (Human))	nM	1.7
OC[C@H]1O[C@@H](c2ccc(Cl)c(Cc3ccc(CC4COC4)cc3)c2)[C@H](O)[C@@H](O)[C@@H]1O	human SGLT2 (Homo sapiens (Human))	nM	9.6
CCOc1ccc(Cc2cc([C@@H]3O[C@H](CO)[C@@H](O)[C@H](O)[C@H]3O)c(OCC3(F)COC3)cc2Cl)cc1	human SGLT2 (Homo sapiens (Human))	nM	12
OC[C@H]1O[C@@H](c2ccc(Cl)c(Cc3ccc(OCC4CCO4)cc3)c2)[C@H](O)[C@@H](O)[C@@H]1O (single isomer, unassigned) [Compound 3]	human SGLT2 (Homo sapiens (Human))	nM	11.4
OC[C@H]1O[C@@H](c2ccc(Cl)c(Cc3ccc(OCC4CCO4)cc3)c2)[C@H](O)[C@@H](O)[C@@H]1O (single isomer, unassigned) [Compound 2]	human SGLT2 (Homo sapiens (Human))	nM	8.7
CCOc1ccc(Cc2cc([C@@H]3O[C@H](CO)[C@@H](O)[C@H](O)[C@H]3O)c(OCCCC3(F)COC3)cc2Cl)cc1	human SGLT2 (Homo sapiens (Human))	nM	12.3
OC[C@H]1O[C@@H](c2ccc(Cl)c(Cc3ccc(OCC4CCO4)cc3)c2)[C@H](O)[C@@H](O)[C@@H]1O (single isomer, unassigned) [Compound 4]	human SGLT2 (Homo sapiens (Human))	nM	4.9
OC[C@H]1O[C@@H](c2ccc(Cl)c(Cc3ccc(OCC4(F)COC4)cc3)c2)[C@H](O)[C@@H](O)[C@@H]1O	human SGLT2 (Homo sapiens (Human))	nM	6.5
OC[C@H]1O[C@@H](c2ccc(Cl)c(Cc3ccc(OCC4CN(c5ccc(F)cc5)C4)cc3)c2)[C@H](O)[C@@H](O)[C@@H]1O	human SGLT2 (Homo sapiens (Human))	nM	97.2
OC[C@H]1O[C@@H](c2ccc(Cl)c(Cc3ccc(OCCC4(F)COC4)cc3)c2)[C@H](O)[C@@H](O)[C@@H]1O	human SGLT2 (Homo sapiens (Human))	nM	7.5
CC(=O)N1CC(COc2ccc(Cc3cc([C@@H]4O[C@H](CO)[C@@H](O)[C@H](O)[C@H]4O)ccc3Cl)cc2)C1	human SGLT2 (Homo sapiens (Human))	nM	6.4
OC[C@H]1O[C@@H](c2ccc(Cl)c(Cc3ccc(OCC4COC4)cc3)c2)[C@H](O)[C@@H](O)[C@@H]1O	human SGLT2 (Homo sapiens (Human))	nM	5.6
OC[C@H]1O[C@@H](c2ccc(Cl)c(Cc3ccc(OCC4CN(C5COC5)C4)cc3)c2)[C@H](O)[C@@H](O)[C@@H]1O	human SGLT2 (Homo sapiens (Human))	nM	22

----------
System: C57 mice
experiment-notes: Urinary glucose excretion test
Type: in vivo
condition: adult C57 mice, 10 mg/kg, 24-hours urine collection, average of 6 mice
Rule: Urine Glucose Excretion (mg/200 g BW/24 h) of 1000 mg/200 g BW/24 h or more gives True; anything lower gives False.

compound	assigned-class
OC[C@H]1O[C@@H](c2ccc(Cl)c(Cc3ccc(OCC4(CF)COC4)cc3)c2)[C@H](O)[C@@H](O)[C@@H]1O	False
CC1(COc2ccc(Cc3cc([C@@H]4O[C@H](CO)[C@@H](O)[C@H](O)[C@H]4O)ccc3Cl)cc2)COC1	True
OC[C@H]1O[C@@H](c2ccc(Cl)c(Cc3ccc(OC4CCOC4)cc3)c2)[C@H](O)[C@@H](O)[C@@H]1O (some centres unmarked) [EMPAGLIFLOZIN, reference compound]	True
CC(=O)N1CC(COc2ccc(Cc3cc([C@@H]4O[C@H](CO)[C@@H](O)[C@H](O)[C@H]4O)ccc3Cl)cc2)C1	False
OC[C@H]1O[C@@H](c2ccc(Cl)c(Cc3ccc(OCCCC4(F)COC4)cc3)c2)[C@H](O)[C@@H](O)[C@@H]1O	True
OC[C@H]1O[C@@H](c2ccc(Cl)c(Cc3ccc(OCC4(F)COC4)cc3)c2)[C@H](O)[C@@H](O)[C@@H]1O	True
OC[C@H]1O[C@@H](c2ccc(Cl)c(Cc3ccc(CC4(F)COC4)cc3)c2)[C@H](O)[C@@H](O)[C@@H]1O	True
OC[C@H]1O[C@@H](c2ccc(Cl)c(Cc3ccc(CC4COC4)cc3)c2)[C@H](O)[C@@H](O)[C@@H]1O	False
OC[C@H]1O[C@@H](c2ccc(Cl)c(Cc3ccc(OCCC4(F)COC4)cc3)c2)[C@H](O)[C@@H](O)[C@@H]1O	True
OC[C@H]1O[C@@H](c2ccc(Cl)c(Cc3ccc(OCCC4CSC4)cc3)c2)[C@H](O)[C@@H](O)[C@@H]1O	False
OC[C@H]1O[C@@H](c2ccc(Cl)c(Cc3ccc(OCC4COC4)cc3)c2)[C@H](O)[C@@H](O)[C@@H]1O	True

----------
study-target: human SGLT2 (Homo sapiens (Human), UniProt P31639)
Sequence (P31639 whole entry): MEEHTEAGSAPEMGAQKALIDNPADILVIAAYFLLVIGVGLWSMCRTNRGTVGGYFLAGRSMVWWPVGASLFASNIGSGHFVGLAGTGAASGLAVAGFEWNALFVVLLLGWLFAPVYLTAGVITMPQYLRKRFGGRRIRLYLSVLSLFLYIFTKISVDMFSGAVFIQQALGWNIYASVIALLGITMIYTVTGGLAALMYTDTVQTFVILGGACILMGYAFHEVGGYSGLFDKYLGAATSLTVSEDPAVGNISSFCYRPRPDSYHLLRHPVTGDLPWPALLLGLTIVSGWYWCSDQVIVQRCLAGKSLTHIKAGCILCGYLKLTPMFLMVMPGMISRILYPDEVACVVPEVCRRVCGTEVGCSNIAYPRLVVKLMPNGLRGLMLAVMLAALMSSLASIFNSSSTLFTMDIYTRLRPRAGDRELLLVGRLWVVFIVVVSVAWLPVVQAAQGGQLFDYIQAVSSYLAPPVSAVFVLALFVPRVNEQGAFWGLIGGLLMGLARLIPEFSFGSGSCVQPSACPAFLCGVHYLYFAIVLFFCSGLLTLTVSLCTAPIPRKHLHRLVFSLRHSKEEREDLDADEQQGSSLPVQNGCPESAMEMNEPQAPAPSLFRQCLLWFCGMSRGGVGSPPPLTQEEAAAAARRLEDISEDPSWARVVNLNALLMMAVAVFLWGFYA
experiment-notes: Uptake assay of [14C]-AMG in Flp-In CHO cells stably expressing human SGLT2;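 note: uptake in Na+ containing KRH buffer with compounds added in 1% DMSO, radioactivity of lysed cells read by scintillation counting, SGLT1 tested the same way in matching Flp-In CHO cells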
Format: cell-based
condition: ratio SGLT1 IC50 / SGLT2 IC50
readout-name: Selectivity (SGLT1/SGLT2)

molecule	reported-value
OC[C@H]1O[C@@H](c2ccc(Cl)c(Cc3ccc(OCCCC4(F)COC4)cc3)c2)[C@H](O)[C@@H](O)[C@@H]1O	1089
OC[C@H]1O[C@@H](c2ccc(Cl)c(Cc3ccc(OCCC4CSC4)cc3)c2)[C@H](O)[C@@H](O)[C@@H]1O	176
OC[C@H]1O[C@@H](c2ccc(Cl)c(Cc3ccc(OCC4CN(c5ccc(F)cc5)C4)cc3)c2)[C@H](O)[C@@H](O)[C@@H]1O	21
OC[C@H]1O[C@@H](c2ccc(Cl)c(Cc3ccc(OCC4CN(C5COC5)C4)cc3)c2)[C@H](O)[C@@H](O)[C@@H]1O	111
OC[C@H]1O[C@@H](c2ccc(Cl)c(Cc3ccc(OCC4CCO4)cc3)c2)[C@H](O)[C@@H](O)[C@@H]1O (single isomer, unassigned) [Compound 3]	201
OC[C@H]1O[C@@H](c2ccc(Cl)c(Cc3ccc(OCCC4(F)COC4)cc3)c2)[C@H](O)[C@@H](O)[C@@H]1O	159
CCOc1ccc(Cc2cc([C@@H]3O[C@H](CO)[C@@H](O)[C@H](O)[C@H]3O)c(OCCCC3(F)COC3)cc2Cl)cc1	1559
[O-][S+]1CC(CCOc2ccc(Cc3cc([C@@H]4O[C@H](CO)[C@@H](O)[C@H](O)[C@H]4O)ccc3Cl)cc2)C1 (stereo partly shown)	150
CC(=O)N1CC(COc2ccc(Cc3cc([C@@H]4O[C@H](CO)[C@@H](O)[C@H](O)[C@H]4O)ccc3Cl)cc2)C1	73
CC(C)(C)OC(=O)N1CC(COc2ccc(Cc3cc([C@@H]4O[C@H](CO)[C@@H](O)[C@H](O)[C@H]4O)ccc3Cl)cc2)C1	96
OC[C@H]1O[C@@H](c2ccc(Cl)c(Cc3ccc(OCC4CNC4)cc3)c2)[C@H](O)[C@@H](O)[C@@H]1O	93
OC[C@H]1O[C@@H](c2ccc(Cl)c(Cc3ccc(OCC4(CF)COC4)cc3)c2)[C@H](O)[C@@H](O)[C@@H]1O	690
OC[C@H]1O[C@@H](c2ccc(Cl)c(Cc3ccc(OCC4CCO4)cc3)c2)[C@H](O)[C@@H](O)[C@@H]1O (single isomer, unassigned) [Compound 2]	188
CCOc1ccc(Cc2cc([C@@H]3O[C@H](CO)[C@@H](O)[C@H](O)[C@H]3O)c(OCC3(F)COC3)cc2Cl)cc1	1424
OC[C@H]1O[C@@H](c2ccc(Cl)c(Cc3ccc(CC4COC4)cc3)c2)[C@H](O)[C@@H](O)[C@@H]1O	312
OC[C@H]1O[C@@H](c2ccc(Cl)c(Cc3ccc(CC4(F)COC4)cc3)c2)[C@H](O)[C@@H](O)[C@@H]1O	306
OC[C@H]1O[C@@H](c2ccc(Cl)c(Cc3ccc(OCC4CCO4)cc3)c2)[C@H](O)[C@@H](O)[C@@H]1O (single isomer, unassigned) [Compound 4]	295
CCOc1ccc(Cc2cc([C@@H]3O[C@H](CO)[C@@H](O)[C@H](O)[C@H]3O)c(OCC3CNC3)cc2Cl)cc1	28
CC1(COc2ccc(Cc3cc([C@@H]4O[C@H](CO)[C@@H](O)[C@H](O)[C@H]4O)ccc3Cl)cc2)COC1	95
OC[C@H]1O[C@@H](c2ccc(Cl)c(Cc3ccc(OCCCC4COC4)cc3)c2)[C@H](O)[C@@H](O)[C@@H]1O	2911
OC[C@H]1O[C@@H](c2ccc(Cl)c(Cc3ccc(CCC4COC4)cc3)c2)[C@H](O)[C@@H](O)[C@@H]1O	124
OC[C@H]1O[C@@H](c2ccc(Cl)c(Cc3ccc(OCCC4COC4)cc3)c2)[C@H](O)[C@@H](O)[C@@H]1O	547
CN1CC(COc2ccc(Cc3cc([C@@H]4O[C@H](CO)[C@@H](O)[C@H](O)[C@H]4O)ccc3Cl)cc2)C1	62
OC[C@H]1O[C@@H](c2ccc(Cl)c(Cc3ccc(OCC4(F)COC4)cc3)c2)[C@H](O)[C@@H](O)[C@@H]1O	320
OC[C@H]1O[C@@H](c2ccc(Cl)c(Cc3ccc(OCC4COC4)cc3)c2)[C@H](O)[C@@H](O)[C@@H]1O	471
